# assay-procedure: Fraction unbound in human plasma
# Type: ADME, cell-free
With a cut-off of 0.2, any fraction unbound strictly below it is called fulfilled; any fraction unbound meeting it or above is called not fulfilled.

Worked examples follow.
* C[C@H](c1cc(C(=O)N(C)CCO)cc2c(=O)cc(N3CCOCC3)oc12)N(C)c1cc(F)cc(F)c1 | fulfilled
* C[C@H](c1cc(C(=O)N(C)C)cc2c(=O)cc(N3CCOCC3)oc12)N(C)c1cc(F)cc(F)c1 | fulfilled
* C[C@@H](Nc1cc(F)cc(Cl)c1)c1cc(C(=O)N(C)C)cc2c(=O)cc(N3CCOCC3)oc12 | fulfilled

Input line: Please state whether fraction unbound is below 0.2 for C[C@@H](Nc1cc(F)cc(F)c1)c1cc(C(=O)N(C)C)cc2c(=O)cc(N3CCOCC3)oc12 [AZD-8186]
Output line: fulfilled

Input line: Please state whether fraction unbound is below 0.2 for `C[C@H]1CN(c2cc(=O)c3cc(C(=O)N(C)C)cc([C@@H](C)Nc4cc(F)cc(F)c4)c3o2)CCO1`
Output line: fulfilled

Input line: Please state whether fraction unbound is below 0.2 for `C[C@H](c1cc(C(=O)N2CCC(O)CC2)cc2c(=O)cc(N3CCOCC3)oc12)N(C)c1cc(F)cc(F)c1`
Output line: fulfilled

Input line: Please state whether fraction unbound is below 0.2 for `C[C@@H](Nc1ccc(F)c(F)c1)c1cc(C(=O)N(C)C)cc2c(=O)cc(N3CCOCC3)oc12`
Output line: not fulfilled

Input line: Please state whether fraction unbound is below 0.2 for `C[C@@H](Nc1cccc(Cl)c1F)c1cc(C(=O)N(C)C)cc2c(=O)cc(N3CCOCC3)oc12`
Output line: fulfilled

Input line: Please state whether fraction unbound is below 0.2 for `C[C@@H](Nc1cc(F)cc(F)c1F)c1cc(C(=O)N(C)C)cc2c(=O)cc(N3CCOCC3)oc12`
Output line: not fulfilled
